B1: Kinesin-like protein KIF16B, residues 1213 to 1273; numbered along this chain, Q96L93 (parent)
chain: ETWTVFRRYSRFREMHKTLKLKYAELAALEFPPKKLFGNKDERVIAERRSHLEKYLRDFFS

# Variants of: B1
# assay text: abundance fitness (aPCA) (normalised: wild type 0, dead -1); higher = more abundant; growth selection in yeast, the domain comes from the species named
# conditions: Homo sapiens
Decide by abundance fitness: equal to or exceeding -0.2 means MET, less means NOT MET.

mutant label: K22G
label class: NOT MET

mutant label: T4F
label class: MET

mutant label: A24T
label class: MET

mutant label: K22C
label class: NOT MET

mutant label: L36H
label class: NOT MET

mutant label: K20H
label class: NOT MET

mutant label: L52Q
label class: NOT MET

mutant label: S61L
label class: MET

mutant label: R57F
label class: NOT MET

mutant label: V5E
label class: NOT MET

mutant label: D41H
label class: MET

mutant label: K17Y
label class: NOT MET

mutant label: L36P
label class: NOT MET

mutant label: V5D
label class: MET

mutant label: E30T
label class: MET

mutant label: A24V
label class: NOT MET

mutant label: F6N
label class: NOT MET

mutant label: A28W
label class: MET

mutant label: M15R
label class: NOT MET

mutant label: R49G
label class: MET

mutant label: L21I
label class: NOT MET

mutant label: P32M
label class: MET

mutant label: S50A
label class: NOT MET

mutant label: T2V
label class: MET

mutant label: K54D
label class: NOT MET

mutant label: F6I
label class: MET

mutant label: H51L
label class: MET

mutant label: N39G
label class: MET

mutant label: H51I
label class: NOT MET

mutant label: E14N
label class: NOT MET

mutant label: F6K
label class: NOT MET

mutant label: R49S
label class: MET

mutant label: L52H
label class: MET

mutant label: A46Y
label class: NOT MET

mutant label: G38M
label class: NOT MET

mutant label: E47D
label class: MET

mutant label: R8A
label class: MET

mutant label: L52R
label class: NOT MET

mutant label: R7T
label class: MET

mutant label: M15V
label class: MET

mutant label: I45Q
label class: MET

mutant label: V44D
label class: MET

mutant label: E47H
label class: MET

mutant label: F59G
label class: NOT MET

mutant label: R8K
label class: MET
